Catalogue of PBM binding z-score values
# System: PPARg:RXRa 90nM:30nM, anti-RXR (NR concentration 90 nM, RXRa partner concentration 30 nM)
# Protocol: PBM binding z-score (relative to random genomic background probes); higher = stronger binding; sequences stand for … in GC…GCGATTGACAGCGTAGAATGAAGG
Lab note: record just the number, no unit beside it.

| Residue codes | Assay endpoint | Recorded value |
| --- | --- | --- |
| CCGACTGGGCCAAGGTCATTGATCAGTCAAAGCA | PBM binding z-score | 2.11 |
| CGTCCAAGGTCAGAGAGGTCAGTGAATGCCGAGT | PBM binding z-score | 3.2 |
| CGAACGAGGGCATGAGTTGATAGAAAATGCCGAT | PBM binding z-score | 0.956 |
| CCTATTAGTTGACCATAAGGGCAACCGTAGCTCG | PBM binding z-score | 0.357 |
| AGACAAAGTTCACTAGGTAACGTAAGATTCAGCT | PBM binding z-score | 4.7 |
| CGTCAAAGTTCAATTAAGGTAACGTAAAGCACGC | PBM binding z-score | 3.44 |
| ATACCAAGGTGATCCTGAGGTCGTTGATACTAAC | PBM binding z-score | 0.197 |
| ATCTCTATGTAAGACTCAGTTCAGTGAAGAACGC | PBM binding z-score | -0.281 |
| TCTTGTAGATCAACAGGAGGCTAAGAAAGATCGA | PBM binding z-score | 1.35 |
| CAAACTAGGTCAACGTCAAAGTCGGTTTGTGCCA | PBM binding z-score | 6.72 |

Problem: Need PBM binding z-score, item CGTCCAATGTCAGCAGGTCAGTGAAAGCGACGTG
Result: -0.158

Problem: One more sequence: CAAACTAGGTCACAGATGTCAAAGTCCGTGCGTA
Result: 7.25

Problem: One more sequence: GATACAGGGTCAGCTAGAGGCCAGAGTCTGGAAA
Result: 2.27

Problem: One more sequence: CCTAGTTGGTCAAGGCCACACACGCTATAGGTAC
Result: 0.142

Problem: One more sequence: AATAAAGGGTCACTAGGCCAGAGTAGGTACGAAT
Result: 6.22

Problem: One more sequence: AGAATGAAGTTATACGTAGATCAGGGAAGAAAGT
Result: -0.163

Problem: One more sequence: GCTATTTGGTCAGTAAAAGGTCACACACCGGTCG
Result: 4.46

Problem: One more sequence: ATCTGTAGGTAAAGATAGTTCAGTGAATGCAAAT
Result: 0.391

Problem: One more sequence: TGAATGAGGTTAAAGATCAGGGAGCGTGGCGTCG
Result: 6.49

Problem: One more sequence: TCTTGTAGATCAATGGAGGTTAAGAAAGTGCGCT
Result: 2.18

Problem: One more sequence: CCTCACGGGTCACTCCAGGTTATAGCATCGGAGT
Result: 1.92
